Recorded Ki values for a group of compounds are listed next.
Target: PQQGDH (Acinetobacter calcoaceticus)
Sequence (P13650 25-478): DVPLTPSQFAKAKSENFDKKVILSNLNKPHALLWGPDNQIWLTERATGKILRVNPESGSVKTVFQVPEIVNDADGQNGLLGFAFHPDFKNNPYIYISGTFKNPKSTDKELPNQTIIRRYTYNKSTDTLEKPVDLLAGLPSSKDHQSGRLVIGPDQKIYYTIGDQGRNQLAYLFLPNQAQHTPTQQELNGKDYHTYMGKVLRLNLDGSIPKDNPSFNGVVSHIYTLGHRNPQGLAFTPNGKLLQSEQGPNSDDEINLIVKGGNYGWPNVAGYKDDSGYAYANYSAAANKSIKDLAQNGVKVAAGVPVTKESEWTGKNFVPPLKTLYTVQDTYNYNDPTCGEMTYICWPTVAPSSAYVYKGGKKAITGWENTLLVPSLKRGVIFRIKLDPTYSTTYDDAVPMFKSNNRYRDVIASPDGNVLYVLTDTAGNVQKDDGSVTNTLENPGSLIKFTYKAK
Assay: PQQGDH activity for glucose in the presence of synthetic peptides (PMS/DCIP assay)
Conditions: derived from the Dixon plot; 0.57 nM apo-PQQGDH, glucose substrate, pH 7.0; read-out: Ki (inhibition constant)
Peptide text beside a SMILES is read from it.

Worked cases, answers included:
>  <Compound>
N=C(N)NCCC[C@H](NC(=O)[C@H](CCC(=O)O)NC(=O)CN)C(=O)N[C@@H](CC(=O)O)C(=O)O [GERD] (H-GERD-OH)

>  <Ki>
> 20 µM

$$$$
>  <Compound>
NCCCC[C@H](NC(=O)[C@H](CCC(=O)O)NC(=O)CN)C(=O)N[C@@H](CC(=O)O)C(=O)O [GEKD] (H-GEKD-OH)

>  <Ki>
> 20 µM

$$$$
>  <Compound>
N=C(N)NCCC[C@H](NC(=O)[C@H](CCC(=O)O)NC(=O)[C@@H](N)CO)C(=O)NCC(=O)O [SERG] (H-SERG-OH)

>  <Ki>
20 µM

$$$$

# evaluate next
Exam item: Please report the recorded Ki for N[C@@H](CC(=O)O)C(=O)N[C@@H](CC(=O)O)C(=O)N[C@@H](CC(=O)O)C(=O)N[C@@H](CC(=O)O)C(=O)O [DDDD] (H-DDDD-OH) .
Marked response: > 100 µM
